- assay-target: Aryl hydrocarbon receptor (Homo sapiens)
- Sequence (P35869 whole entry): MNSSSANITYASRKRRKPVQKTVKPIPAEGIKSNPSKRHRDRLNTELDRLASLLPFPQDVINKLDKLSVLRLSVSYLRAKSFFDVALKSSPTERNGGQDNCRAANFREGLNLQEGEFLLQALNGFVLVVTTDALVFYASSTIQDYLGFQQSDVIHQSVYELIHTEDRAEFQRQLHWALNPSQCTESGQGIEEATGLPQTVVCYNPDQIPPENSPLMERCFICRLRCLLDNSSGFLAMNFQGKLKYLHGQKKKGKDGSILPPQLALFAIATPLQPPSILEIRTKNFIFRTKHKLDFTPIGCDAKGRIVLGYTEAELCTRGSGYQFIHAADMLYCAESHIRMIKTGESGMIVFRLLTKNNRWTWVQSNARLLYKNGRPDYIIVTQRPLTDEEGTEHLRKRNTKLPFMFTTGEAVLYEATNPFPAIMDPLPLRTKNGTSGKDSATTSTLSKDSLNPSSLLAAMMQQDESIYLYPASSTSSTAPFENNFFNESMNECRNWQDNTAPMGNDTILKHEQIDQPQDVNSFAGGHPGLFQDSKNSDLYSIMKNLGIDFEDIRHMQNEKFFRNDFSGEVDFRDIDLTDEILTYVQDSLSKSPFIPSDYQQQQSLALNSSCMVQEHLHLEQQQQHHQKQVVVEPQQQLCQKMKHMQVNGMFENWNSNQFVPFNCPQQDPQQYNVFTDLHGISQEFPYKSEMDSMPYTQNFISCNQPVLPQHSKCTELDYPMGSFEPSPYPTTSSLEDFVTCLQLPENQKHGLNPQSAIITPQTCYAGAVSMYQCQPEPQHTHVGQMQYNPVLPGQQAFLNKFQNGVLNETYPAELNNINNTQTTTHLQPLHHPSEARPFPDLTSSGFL
measurement-label: EC50 (nM)
Give a bare numeral; the unit nM is implied.

Brc1ccc2c(c1)Oc1ccccc1O2	295

Inquiry: Please supply the value of reported EC50 for the item `Clc1ccc2oc3c(Cl)c(Cl)c(Cl)c(Cl)c3c2c1`
Reply text: 120

Inquiry: Please supply the value of reported EC50 for the item `Clc1cc2c(cc1Cl)Oc1cc(Cl)c(Cl)cc1O2`
Reply text: 10

Inquiry: Please supply the value of reported EC50 for the item `Clc1cc2c(cc1Cl)Oc1c(cc(Cl)c(Cl)c1Cl)O2`
Reply text: 79.4

Inquiry: Please supply the value of reported EC50 for the item `Clc1cc(Cl)c(-c2cc(Cl)c(Cl)cc2Cl)cc1Cl`
Reply text: 79400
